target: CDK9 (human) (UniProt P50750); assay: KINOMEscan competition binding; details: compound 10.0 µM
Sequence (P50750 whole entry, looked up): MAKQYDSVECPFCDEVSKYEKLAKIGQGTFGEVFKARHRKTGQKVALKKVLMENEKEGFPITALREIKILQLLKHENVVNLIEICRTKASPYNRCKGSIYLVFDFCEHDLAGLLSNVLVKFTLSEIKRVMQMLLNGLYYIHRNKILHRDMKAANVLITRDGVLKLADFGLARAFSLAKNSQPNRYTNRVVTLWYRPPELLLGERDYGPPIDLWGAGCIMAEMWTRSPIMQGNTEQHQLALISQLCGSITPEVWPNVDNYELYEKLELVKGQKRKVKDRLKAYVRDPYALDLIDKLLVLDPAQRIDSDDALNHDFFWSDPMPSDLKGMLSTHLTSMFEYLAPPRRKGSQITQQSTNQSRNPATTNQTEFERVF
Reported kinase still bound, per cent of control is given for each of the following compounds.

chemicalSmiles: CCN1CCN(Cc2ccc(NC(=O)c3ccc(C)c(Oc4ccnc5[nH]ccc45)c3)cc2C(F)(F)F)CC1
kinase still bound, per cent of control (%): 5.8

chemicalSmiles: COc1cc(N2CCC(N3CCN(C)CC3)CC2)ccc1Nc1ncc(Cl)c(Nc2ccccc2S(=O)(=O)C(C)C)n1
kinase still bound, per cent of control (%): 40

chemicalSmiles: CCN1CCN(Cc2ccc(NC(=O)c3ccc(C)c(/C=C/c4cnc(Nc5cc(N6CCNCC6)nc(C)n5)cn4)c3)cc2C(F)(F)F)CC1
kinase still bound, per cent of control (%): 99

chemicalSmiles: CCOc1cc(N2CCC(N3CCCCC3)CC2)ccc1Nc1nc(Nc2ccccc2S(=O)(=O)C(C)C)c2cn[nH]c2n1
kinase still bound, per cent of control (%): 100
